Assay: qHTS assay for small molecules that induce genotoxicity in human embryonic kidney cells expressing luciferase-tagged ATAD5 (AID 651632); further: on the % scale 0 is the no-effect control and ±100 the full control effect; nearly all actives have a fitted effect of over 15% in size
Settings: HEK293T ATAD5-luciferase induction, 16 h; series mostly up to 83.3 µM
Results filed as inconclusive are left out. Active and inactive are the calls of the source. The call rests on the fitted dose curve; in most records, active means well fitted activation curve with a large enough effect in the repeat runs; inconclusive means weak or mixed curves; inactive means no such curve, though single readings can be large or run the other way.
VALUE KIND: outcome

Some solved cases for reference:
{"COMPOUND": "Cc1cccc(C)c1NC(=O)CN(CC(=O)O)CC(=O)O", "outcome": "inactive"}
{"COMPOUND": "O=C(O)C(S)C(S)C(=O)O (stereo unspecified)", "outcome": "inactive"}
{"COMPOUND": "NC(=O)C(c1ccccc1)(c1ccccc1)[C@@H]1CCN(CCc2ccc3c(c2)CCO3)C1", "outcome": "inactive"}
{"COMPOUND": "CCCCC(=O)OCC(=O)[C@H]1[C@H](C)C[C@H]2[C@@H]3C[C@H](F)C4=CC(=O)C=C[C@]4(C)[C@@]3(F)[C@@H](O)C[C@@]21C", "outcome": "inactive"}
{"COMPOUND": "O=C1C(O)=C(O)C(=O)C(O)=C1O", "outcome": "inactive"}
{"COMPOUND": "Clc1ccc2c(c1)CCc1cccnc1C2=C1CCNCC1", "outcome": "inactive"}

For CN1CCN(C(c2ccccc2)c2ccccc2)CC1 the compound record lists outcome as inactive

Lab note: measured outcome of CN1CCC(=C2c3ccccc3Sc3ccccc32)CC1 was inactive

Record summary for C/C=C/C=C/CO : reported outcome = inactive

Sure, the documented outcome for Cc1[nH]c(C)c(Cl)c(=O)c1Cl is inactive

###

Assay: A CellTox Green Cytotoxicity Assay to monitor cytotoxicity in HepG2 cells - 32 hour (AID 1224883); further: on the % scale 0 is the no-effect control and ±100 the full control effect; nearly all actives have a fitted effect of over 50% in size
Conditions: CellTox Green fluorescence; series mostly up to 76.8 µM
Inconclusive results are not listed. Activity calls are given as the source filed them. Calls follow the shape of the dose curve; as a rule, active = well fitted activation curve with a large enough effect in the repeat runs; inconclusive = weak or mixed curves; inactive = flat fitted curve, though single readings scatter.
Assign a class; possible classes are T = active, F = inactive

{"MOLECULE": "COc1cc2nc(N(C)CCCNC(=O)C3CCCO3)nc(N)c2cc1OC (stereo unspecified)", "QUALITATIVE LABEL": "F"}

(Q) Kindly provide the recorded test outcome for the following molecule: CC(C)(C)Cl
(A) F

###

Items are presented alongside their recorded activity change, negative = cytotoxicity.
Test: qHTS assay to identify small molecule agonists of the progesterone receptor (PR) signaling pathway - cell viability counter screen (AID 1346799); further: on the % scale 0 is the no-effect control and ±100 the full control effect; nearly all actives have a fitted effect of over 45% in size
Details: PR-UAS-bla HEK293T viability, CellTiter-Glo luminescence, 16 h; series mostly up to 92.4 µM
Records with an inconclusive call do not appear. Calls of active or inactive are those of the source. The call rests on the fitted dose curve.

# example entries with known answers
{"COMPOUND": "O=C(O)CNCC(=O)O", "TEST VALUE": "20.3% [at 8.39 µM] (inactive)"}
{"COMPOUND": "NCC(=O)O", "TEST VALUE": "27.9% [at 19 µM] (inactive)"}
{"COMPOUND": "Cc1[nH]c(C)c(Cl)c(=O)c1Cl", "TEST VALUE": "5.96% [at 19 µM] (inactive)"}
{"COMPOUND": "C/C(=C(\\CCOP(=O)(O)O)SC(=O)c1ccccc1)N(C=O)Cc1cnc(C)nc1N", "TEST VALUE": "-10.4% [at 8.39 µM] (inactive)"}

Moving on to the next compound.
For this compound ( CC(CSC(=O)c1ccccc1)C(=O)N1C[C@@H](Sc2ccccc2)C[C@H]1C(=O)O (stereo not given in full) ), measured activity change, negative = cytotoxicity is -1.53% [at 19 µM] (inactive)
